- experimental_target: DLK (Homo sapiens, UniProt Q12852)
- Construct: 10 nM DLK, catalytic domain, Carna Biosiences; purchased Carna Biosciences ('Carna Biosiences' [sic])
- Sequence (Q12852 125-366 limits assumed): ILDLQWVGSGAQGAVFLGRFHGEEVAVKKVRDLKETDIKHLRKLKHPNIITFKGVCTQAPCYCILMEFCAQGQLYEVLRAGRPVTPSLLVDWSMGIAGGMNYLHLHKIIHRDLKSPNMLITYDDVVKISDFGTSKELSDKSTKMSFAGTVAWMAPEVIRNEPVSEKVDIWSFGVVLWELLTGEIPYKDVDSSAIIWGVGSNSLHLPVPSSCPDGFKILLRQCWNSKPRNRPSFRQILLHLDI
- test_name: DLK biochemical assay (TR-FRET, MKK7 phosphorylation)
measurement_label: IC50 (nM)

molecule	measurement_label	result_value
CC(C)C(c1ccc(C(F)(F)F)nc1)n1cc(-c2cc(-c3ccc(C4CC4)nc3)c3nc(N)nn3c2)cn1 (single isomer, unassigned) [II-44]	IC50	60

(1) CCC(c1ccc(C(F)(F)F)nc1)n1cc(-c2cc(-c3cnn(CC(F)F)c3)c3nc(N)nn3c2)cn1 (single isomer, unassigned) [II-110]
(2) Nc1nc2c(-c3cnn(CC(F)(F)F)c3)cc(-c3cnn(C(c4ccc(C(F)(F)F)nc4)C4CCOCC4)c3)cn2n1 (racemic) [II-117]
IC50 comparison. Which is larger, 1 or 2 ? Your answer should be the label of the entry you select.
2
(2: 3.8 nM, 1: 2.2 nM)
